# Method notes: Equilibrium solubility, shake-flask method
# Format: physicochemical
# Condition info: n-hexane, organic solvent or mixture, thermodynamic from solid, n-hexane, 293.15 K; read-out: Solubility S2 × 10^6
# Protocol: The standard shake-flask method was applied to determine solubility. The saturated solutions of the studied compound were obtained in glass screw-capped vials with the respective solvent, which were vigorously stirred in an air thermostat. The volumes of water, 1-octanol, n-hexane, and ethanol equaled 7, 2, 7, and 2 mL, respectively. […] The dissolution thermodynamic parameters on the standard state were determined using mole fraction unitary units. […]
Assay metric: solubility at 24 h (µM)

>>> reported_measurement("CC(O)(CS(=O)(=O)c1ccc(F)cc1)C(=O)Nc1ccc(C#N)c(C(F)(F)F)c1 (stereo not shown) [BCL, bicalutamide]")
5.67

====

# Method notes: Equilibrium solubility, shake-flask method
# Format: physicochemical
# Condition info: n-hexane, organic solvent or mixture, thermodynamic from solid, n-hexane, 303.15 K; read-out: Solubility S2 × 10^6
Assay metric: solubility at 24 h (µM)

>>> reported_measurement("CC(O)(CS(=O)(=O)c1ccc(F)cc1)C(=O)Nc1ccc(C#N)c(C(F)(F)F)c1 (stereo not shown) [BCL, bicalutamide]")
11.3

====

# Method notes: Equilibrium solubility, shake-flask method
# Format: physicochemical
# Condition info: water, thermodynamic from solid, water, 313.15 K; read-out: Solubility S2 × 10^6
Assay metric: solubility at 24 h (µM)

>>> reported_measurement("CC(O)(CS(=O)(=O)c1ccc(F)cc1)C(=O)Nc1ccc(C#N)c(C(F)(F)F)c1 (stereo not shown) [BCL, bicalutamide]")
16.4

====

# Method notes: Equilibrium solubility, shake-flask method
# Format: physicochemical
# Condition info: water, thermodynamic from solid, water, 293.15 K; read-out: Solubility S2 × 10^6
Assay metric: solubility at 24 h (µM)

>>> reported_measurement("CC(O)(CS(=O)(=O)c1ccc(F)cc1)C(=O)Nc1ccc(C#N)c(C(F)(F)F)c1 (stereo not shown) [BCL, bicalutamide]")
6.24

====

# Method notes: Equilibrium solubility, shake-flask method
# Format: physicochemical
# Condition info: water, thermodynamic from solid, water, 303.15 K; read-out: Solubility S2 × 10^6
Assay metric: solubility at 24 h (µM)

>>> reported_measurement("CC(O)(CS(=O)(=O)c1ccc(F)cc1)C(=O)Nc1ccc(C#N)c(C(F)(F)F)c1 (stereo not shown) [BCL, bicalutamide]")
10.5

====

# Method notes: Equilibrium solubility, shake-flask method
# Assay type: physicochemical
# Condition info: water, thermodynamic from solid, water, 298.15 K; read-out: Solubility S2 × 10^6
# Description: The standard shake-flask method was applied to determine solubility. The saturated solutions of the studied compound were obtained in glass screw-capped vials with the respective solvent, which were vigorously stirred in an air thermostat. The volumes of water, 1-octanol, n-hexane, and ethanol equaled 7, 2, 7, and 2 mL, respectively. […] The dissolution thermodynamic parameters on the standard state were determined using mole fraction unitary units. […]
Assay metric: solubility at 24 h (µM)

>>> reported_measurement("CC(O)(CS(=O)(=O)c1ccc(F)cc1)C(=O)Nc1ccc(C#N)c(C(F)(F)F)c1 (stereo not shown) [BCL, bicalutamide]")
8.14

====

# Method notes: Equilibrium solubility, shake-flask method
# Assay type: physicochemical
# Condition info: water, thermodynamic from solid, water, 308.15 K; read-out: Solubility S2 × 10^6
Assay metric: solubility at 24 h (µM)

>>> reported_measurement("CC(O)(CS(=O)(=O)c1ccc(F)cc1)C(=O)Nc1ccc(C#N)c(C(F)(F)F)c1 (stereo not shown) [BCL, bicalutamide]")
12.9

====

# Method notes: Equilibrium solubility, shake-flask method
# Type: physicochemical
# Condition info: n-hexane, organic solvent or mixture, thermodynamic from solid, n-hexane, 308.15 K; read-out: Solubility S2 × 10^6
Assay metric: solubility at 24 h (µM)

>>> reported_measurement("CC(O)(CS(=O)(=O)c1ccc(F)cc1)C(=O)Nc1ccc(C#N)c(C(F)(F)F)c1 (stereo not shown) [BCL, bicalutamide]")
15.3

====

# Method notes: Equilibrium solubility, shake-flask method
# Format: physicochemical
# Condition info: n-hexane, organic solvent or mixture, thermodynamic from solid, n-hexane, 318.15 K; read-out: Solubility S2 × 10^6
Assay metric: solubility at 24 h (µM)

>>> reported_measurement("CC(O)(CS(=O)(=O)c1ccc(F)cc1)C(=O)Nc1ccc(C#N)c(C(F)(F)F)c1 (stereo not shown) [BCL, bicalutamide]")
26.8

====

# Method notes: Equilibrium solubility, shake-flask method
# Format: physicochemical
# Condition info: n-hexane, organic solvent or mixture, thermodynamic from solid, n-hexane, 298.15 K; read-out: Solubility S2 × 10^6
Assay metric: solubility at 24 h

>>> reported_measurement("CC(O)(CS(=O)(=O)c1ccc(F)cc1)C(=O)Nc1ccc(C#N)c(C(F)(F)F)c1 (stereo not shown) [BCL, bicalutamide]")
"8.12 µM"
